- study_system: Serine/threonine-protein kinase pim-1 (Homo sapiens, UniProt P11309); further: in the data inactive means no Kd found up to 30 µM
- Sequence (P11309 whole entry): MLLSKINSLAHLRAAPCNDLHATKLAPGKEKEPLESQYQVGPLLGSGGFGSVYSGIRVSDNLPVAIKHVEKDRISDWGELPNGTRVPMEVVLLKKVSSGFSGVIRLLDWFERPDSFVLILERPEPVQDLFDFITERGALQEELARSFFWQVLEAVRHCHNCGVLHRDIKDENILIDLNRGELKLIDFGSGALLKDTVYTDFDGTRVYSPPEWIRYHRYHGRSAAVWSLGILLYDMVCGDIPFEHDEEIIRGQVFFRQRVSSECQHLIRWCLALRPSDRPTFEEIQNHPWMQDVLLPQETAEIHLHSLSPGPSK
Active and inactive are the calls of the source.
Please go through the items and note down their Kd.

Below, 3 molecules whose answers are already recorded.
| molecule | assay_result |
| --- | --- |
| C1=C/COCc2cc(ccc2OCCN2CCCC2)Nc2nccc(n2)-c2cccc(c2)COC/1 [PACRITINIB] | > 30 µM (inactive) |
| C[C@@H](c1ccc2nccn2c1)n1nnc2ncc(-c3cnn(C)c3)nc21 [SAVOLITINIB] | > 30 µM (inactive) |
| COc1cc(N2CCC(N3CCN(C)CC3)CC2)ccc1Nc1ncnc(Nc2ccccc2S(=O)(=O)C(C)C)n1 [ASP-3026] | > 30 µM (inactive) |

As a next step, examine the molecule that follows.
Readout Kd for Cc1ccc(-n2nc(C(C)(C)C)cc2NC(=O)NCc2cc(F)ccc2Oc2ccc3c(cnn3CCO)c2)cc1 [PEXMETINIB] , test system Serine/threonine-protein kinase pim-1 (Homo sapiens, UniProt P11309), was > 30 µM (inactive)
